- tested target: Her-3 (Homo sapiens)
- Sequence (P21860 20-1342): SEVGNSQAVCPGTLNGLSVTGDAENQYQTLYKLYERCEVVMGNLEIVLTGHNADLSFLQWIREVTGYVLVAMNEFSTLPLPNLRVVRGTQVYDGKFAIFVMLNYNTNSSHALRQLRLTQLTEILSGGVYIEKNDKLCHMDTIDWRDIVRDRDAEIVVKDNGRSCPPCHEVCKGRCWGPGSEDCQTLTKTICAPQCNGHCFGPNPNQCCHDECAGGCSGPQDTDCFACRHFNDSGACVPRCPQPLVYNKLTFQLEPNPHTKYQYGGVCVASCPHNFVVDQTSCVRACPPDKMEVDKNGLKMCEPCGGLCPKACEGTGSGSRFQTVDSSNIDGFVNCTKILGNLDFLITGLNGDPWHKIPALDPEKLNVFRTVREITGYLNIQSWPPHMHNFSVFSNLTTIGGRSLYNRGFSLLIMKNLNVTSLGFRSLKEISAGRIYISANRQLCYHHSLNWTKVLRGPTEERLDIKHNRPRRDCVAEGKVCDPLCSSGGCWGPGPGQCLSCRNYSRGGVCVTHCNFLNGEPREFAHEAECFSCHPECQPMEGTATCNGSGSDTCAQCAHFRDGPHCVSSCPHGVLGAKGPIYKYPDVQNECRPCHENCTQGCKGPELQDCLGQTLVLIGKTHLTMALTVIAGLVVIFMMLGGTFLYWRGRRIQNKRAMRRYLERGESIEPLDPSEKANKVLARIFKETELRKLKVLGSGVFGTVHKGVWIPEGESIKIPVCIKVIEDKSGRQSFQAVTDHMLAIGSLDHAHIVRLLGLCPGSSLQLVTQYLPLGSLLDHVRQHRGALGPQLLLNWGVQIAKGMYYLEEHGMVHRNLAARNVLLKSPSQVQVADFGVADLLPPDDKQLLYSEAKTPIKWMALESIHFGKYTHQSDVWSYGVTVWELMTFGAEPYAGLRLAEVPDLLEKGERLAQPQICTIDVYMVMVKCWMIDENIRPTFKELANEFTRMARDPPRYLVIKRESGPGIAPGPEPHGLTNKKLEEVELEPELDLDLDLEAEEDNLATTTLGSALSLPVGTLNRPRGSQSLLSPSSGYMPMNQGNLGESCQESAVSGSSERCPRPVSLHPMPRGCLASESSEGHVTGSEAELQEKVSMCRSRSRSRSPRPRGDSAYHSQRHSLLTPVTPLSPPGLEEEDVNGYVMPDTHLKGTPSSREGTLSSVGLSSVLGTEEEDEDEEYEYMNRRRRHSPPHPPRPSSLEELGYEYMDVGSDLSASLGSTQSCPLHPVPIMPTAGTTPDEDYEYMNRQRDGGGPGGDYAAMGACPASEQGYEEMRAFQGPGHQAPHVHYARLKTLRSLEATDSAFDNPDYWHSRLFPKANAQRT
- assay notes: Phage ELISA whole-cell binding, T47D cells
- Design: host or cells: T47D human ductal carcinoma cells, whole-cell suspension
- reported conditions: phage fusion; Table 15, second half loop
value kind: Calculated binding (EC50) in T47D cells

Lookup result for D4: WVS background, B-loop MYIEAYRVKT (second half YRVKT); SEQ ID 42 (Ligand Variant) ; measured Calculated binding (EC50) in T47D cells: 2.9 × 10^10 phage titer/mL

Lookup result for WVS: EGF variant, amino acids 2 and 3 replaced with W and V, N-terminus NWVSE; SEQ ID NO 3 (NWVSECPLSHDGYCLHDGVCMYIEALDKYACNCVVGYIGERCQYRDLKWWELR; Ligand Variant) [reference compound] ; measured Calculated binding (EC50) in T47D cells: 7.6 × 10^9 phage titer/mL

Lookup result for wvs-R41DL47G: WVS background, R at position 41 replaced by D, L at position 47 replaced by G; SEQ ID NO 5 (NWVSECPLSHDGYCLHDGVCMYIEALDKYACNCVVGYIGEDCQYRDGKWWELR; Ligand Variant) ; measured Calculated binding (EC50) in T47D cells: 2.6 × 10^11 phage titer/mL

Lookup result for E8: WVS background, B-loop MYIEATKYRG (second half TKYRG); SEQ ID 44 (Ligand Variant) ; measured Calculated binding (EC50) in T47D cells: 3.1 × 10^10 phage titer/mL

Recorded values, source patent US20090318350A1.
